QUANTITY: melting point (°C)
Write the value in °C as a bare number.

Ask | Name the recorded melting point of the item Nc1nnc(-c2c(C(F)(F)F)nn(-c3ccccc3)c2-c2ccc(F)cc2)s1 in your answer.
Reply | 243.3

Ask | Quote melting point reported for NC(=S)NN=Cc1c(C(F)(F)F)nn(-c2ccccc2)c1-c1ccc(Cl)cc1 please.
Reply | 225.37

Ask | In one line, give reported melting point of the entry COc1ccc(-c2c(C=NNC(N)=S)c(C(F)(F)F)nn2-c2ccccc2)cc1 .
Reply | 212.65

Ask | # return recorded melting point for input CSC(N)=NN=Cc1c(C(F)(F)F)nn(-c2ccccc2)c1-c1ccc(Cl)cc1
Reply | 188.5

Ask | Annotate the compound NC(=S)NN=Cc1c(C(F)(F)F)nn(-c2ccccc2)c1-c1ccc(F)cc1 with its measured melting point.
Reply | 221.18

Ask | Item Nc1nnc(-c2c(C(F)(F)F)nn(-c3ccccc3)c2-c2ccc(Br)cc2)s1 : provide melting point
Reply | 239.2

Ask | Using the record for CSC(N)=NN=Cc1c(C(F)(F)F)nn(-c2ccccc2)c1-c1ccc([N+](=O)[O-])cc1 , state its measured melting point.
Reply | 190.7

Ask | Please report melting point for the following compound: NC(=S)NN=Cc1c(C(F)(F)F)nn(-c2ccccc2)c1-c1ccccc1
Reply | 211.27

Ask | Please give measured melting point of the following entry: CSC(N)=NN=Cc1c(C(F)(F)F)nn(-c2ccccc2)c1-c1ccc(F)cc1
Reply | 145.5

Ask | State its melting point: CSC(N)=NN=Cc1c(C(F)(F)F)nn(-c2ccccc2)c1-c1ccccc1
Reply | 165.65

Ask | Read off the recorded melting point for Nc1nnc(-c2c(C(F)(F)F)nn(-c3ccccc3)c2-c2ccc(Cl)cc2)s1
Reply | 224.9

Ask | Specify reported melting point for the compound shown: NC(=S)NN=Cc1c(C(F)(F)F)nn(-c2ccccc2)c1-c1ccc([N+](=O)[O-])cc1
Reply | 226.5

Ask | Supply measured melting point of COc1ccc(-c2c(-c3nnc(N)s3)c(C(F)(F)F)nn2-c2ccccc2)cc1 in your reply.
Reply | 239.1

Ask | Give the reported value of melting point for this record: Nc1nnc(-c2c(C(F)(F)F)nn(-c3ccccc3)c2-c2ccc([N+](=O)[O-])cc2)s1
Reply | 236.7

----------
ASSAY_TEXT: Cytotoxicity assay in J774A1 macrophages (MTT, 48 h)
Format: cell-based
COND: mouse, pH 7.2, J774A1, 50% inhibition of growth
Hi there, I'd appreciate the recorded CC50 at 48 h for every entry that follows.
Kindly answer with a numeric value in µM, unit omitted.

Ask | Please list CC50 at 48 h recorded for the compound CSC(N)=NN=Cc1c(C(F)(F)F)nn(-c2ccccc2)c1-c1ccc(F)cc1
Reply | 202

Ask | Using known records, supply CC50 at 48 h for CSC(N)=NN=Cc1c(C(F)(F)F)nn(-c2ccccc2)c1-c1ccc([N+](=O)[O-])cc1
Reply | 221

Ask | Report CC50 at 48 h for COc1ccc(-c2c(C=NNC(N)=S)c(C(F)(F)F)nn2-c2ccccc2)cc1
Reply | 180

Ask | Give the value of CC50 at 48 h reported for the following: CSC(N)=NN=Cc1c(C(F)(F)F)nn(-c2ccccc2)c1-c1ccc(Cl)cc1
Reply | 301

Ask | State its CC50 at 48 h for this compound: Nc1nnc(-c2c(C(F)(F)F)nn(-c3ccccc3)c2-c2ccc(Br)cc2)s1
Reply | 147
